Assay: Cytotoxicity against CHO-K1 cells measured after 24 hrs by MTT assay
Assay type: toxicity, cell-based, Cricetulus griseus
Details: Chinese hamster
measured.property: log10(IC50 at 24 h) (log10 of the value in µM)

- COc1ccccc1N1CCN(CCN2CCN(C(=O)c3nn(C)c4ccccc34)CC2)CC1: 2.89
- N#Cc1cccnc1N1CCN(CCCN2CCN(c3ccccc3)CC2)CC1: 2.89
- O=C(c1ccccc1)N1CCN(CCCN2CCN(c3cccc(Cl)c3Cl)CC2)CC1: 2.04
- COc1ccc(N2CCN(CCCN3CCN(c4ncccc4C#N)CC3)CC2)cc1: 2.56
- Cn1nc(C(=O)N2CCN(CCN3CCN(c4cccc(Cl)c4Cl)CC3)CC2)c2ccccc21: 1.65

###

Assay: Tmax in male Wistar rat brain at 20 mg/kg, ip
Assay type: ADME, organism-based
measured.property: Tmax

- COc1ccccc1N1CCN(CCCN2CCN(c3ncccc3C#N)CC2)CC1: 5 min

###

Assay: Half-life in male Wistar rat brain at 2 mg/kg, ip
Format: ADME, organism-based
measured.property: half-life (h)

* N#Cc1cccnc1N1CCN(CCCN2CCN(c3cccc(Cl)c3Cl)CC2)CC1 | 4.39

###

Assay: Tmax in male Wistar rat brain at 2 mg/kg, ip
Format: ADME, organism-based
measured.property: Tmax (h)

• N#Cc1cccnc1N1CCN(CCCN2CCN(c3cccc(Cl)c3Cl)CC2)CC1 = 1

###

Assay: MRT in male Wistar rat plasma at 2 mg/kg, ip
Format: ADME, organism-based
measured.property: MRT (h)

* N#Cc1cccnc1N1CCN(CCCN2CCN(c3cccc(Cl)c3Cl)CC2)CC1 | 3.79

###

Assay: Cmax in male Wistar rat brain at 2 mg/kg, ip
Format: ADME, organism-based
Set-up: dose 2 mg/kg, route ip
measured.property: Cmax (nM)

* N#Cc1cccnc1N1CCN(CCCN2CCN(c3cccc(Cl)c3Cl)CC2)CC1 | 266

###

Form field: Ki (one value per entry).
Molecular target: 5-hydroxytryptamine receptor 7 (Homo sapiens, UniProt P34969)
Sequence (P34969 whole entry): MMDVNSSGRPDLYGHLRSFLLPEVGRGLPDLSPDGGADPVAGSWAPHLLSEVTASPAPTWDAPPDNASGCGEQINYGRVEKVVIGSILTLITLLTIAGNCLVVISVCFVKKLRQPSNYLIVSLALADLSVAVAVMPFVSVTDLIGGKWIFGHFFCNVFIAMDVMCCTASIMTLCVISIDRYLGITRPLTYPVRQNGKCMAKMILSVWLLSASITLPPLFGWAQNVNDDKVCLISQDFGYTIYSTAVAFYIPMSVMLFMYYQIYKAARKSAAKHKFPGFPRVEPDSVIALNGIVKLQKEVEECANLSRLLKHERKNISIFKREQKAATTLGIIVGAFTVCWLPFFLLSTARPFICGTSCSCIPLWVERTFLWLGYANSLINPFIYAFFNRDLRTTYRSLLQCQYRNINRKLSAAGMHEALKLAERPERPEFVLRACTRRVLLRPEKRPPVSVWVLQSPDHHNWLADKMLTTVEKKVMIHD
measured.property: Ki (µM)

* N#Cc1cccnc1N1CCN(CCCN2CCN(c3cccc(Cl)c3Cl)CC2)CC1 | 0.57
* COc1ccccc1N1CCN(CCCN2CCN(c3ncccc3C#N)CC2)CC1 | 2.7

###

Test: Cytotoxicity against HEK293 cells measured after 24 hrs by MTT assay
Assay type: toxicity, cell-based
Conditions: human
measured.property: IC50 at 24 h

* O=C1CCc2ccc(OCCCCN3CCN(c4cccc(Cl)c4Cl)CC3)cc2N1 | > 100 µM

###

Assay: Half-life in male Wistar rat brain at 20 mg/kg, ip
Assay type: ADME, organism-based
measured.property: half-life (min)

• COc1ccccc1N1CCN(CCCN2CCN(c3ncccc3C#N)CC2)CC1 = 26.7

###

Biological target: 5-hydroxytryptamine receptor 2A (Homo sapiens, UniProt P28223)
Sequence (P28223 whole entry): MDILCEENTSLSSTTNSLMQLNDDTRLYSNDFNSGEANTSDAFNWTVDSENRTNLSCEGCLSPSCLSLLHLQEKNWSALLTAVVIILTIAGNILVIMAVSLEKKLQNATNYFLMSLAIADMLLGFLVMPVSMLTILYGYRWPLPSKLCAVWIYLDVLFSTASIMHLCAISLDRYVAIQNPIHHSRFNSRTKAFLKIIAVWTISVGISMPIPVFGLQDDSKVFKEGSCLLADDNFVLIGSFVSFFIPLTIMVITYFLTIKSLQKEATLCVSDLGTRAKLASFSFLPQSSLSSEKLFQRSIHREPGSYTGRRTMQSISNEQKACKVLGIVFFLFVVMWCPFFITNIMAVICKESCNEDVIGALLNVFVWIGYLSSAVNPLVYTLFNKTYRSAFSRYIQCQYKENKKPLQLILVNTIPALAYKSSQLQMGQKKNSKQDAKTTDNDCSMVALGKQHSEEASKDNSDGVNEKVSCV
Assay: Displacement of [3H]-ketanserin from human 5-HT2A receptor expressed in CHO-K1 cells measured after 1.5 hrs by Microbeta plate reader method
Assay type: cell-based
measured.property: Ki (µM)

* N#Cc1cccnc1N1CCN(CCN2CCN(c3cccc(Cl)c3Cl)CC2)CC1 | 1.3
* COc1ccc(N2CCN(CCCN3CCN(c4ncccc4C#N)CC3)CC2)cc1 | 40
* O=C1CCc2ccc(OCCCCN3CCN(C(=O)c4ccccn4)CC3)cc2N1 | 6.9
* N#Cc1cccnc1N1CCN(CCCN2CCN(c3cccc(Cl)c3Cl)CC2)CC1 | 0.47
* COc1ccccc1N1CCN(CCCNC(=O)c2cnccn2)CC1 | 35.8
* COc1ccccc1N1CCN(CCN2CCN(C(=O)c3nn(C)c4ccccc34)CC2)CC1 | 8.3
* COc1ccccc1N1CCN(CCCN2CCN(c3ncccc3C#N)CC2)CC1 | 23
* COc1ccccc1N1CCN(CCCN2CCN(C(=O)c3ccccc3)CC2)CC1 | 30
* N#Cc1cccnc1N1CCN(CCCN2CCN(c3ccccc3)CC2)CC1 | 13
* N#Cc1cccnc1N1CCN(CCCCOc2ccc3c(c2)NC(=O)CC3)CC1 | 7.4
* N#Cc1cccnc1N1CCN(CCCOc2ccc3c(c2)NC(=O)CC3)CC1 | 5.3
* Cn1nc(C(=O)N2CCN(CCN3CCN(c4cccc(Cl)c4Cl)CC3)CC2)c2ccccc21 | 1.8
* COc1ccc(N2CCN(CCCN3CCN(C(=O)c4ccccc4)CC3)CC2)cc1 | 30
* O=C(c1ccccc1)N1CCN(CCCN2CCN(c3cccc(Cl)c3Cl)CC2)CC1 | 1.7
* O=C(c1ccccc1)N1CCN(CCCN2CCN(c3ccccc3)CC2)CC1 | 6.5
* O=C(c1ccccn1)N1CCN(CCCN2CCN(c3cccc(Cl)c3Cl)CC2)CC1 | 2.3

###

Measured pKi (D(2) dopamine receptor (Homo sapiens, UniProt P14416))
pKi: −log10 of the molar value.
measured.property: pKi

- COc1ccccc1N1CCN(CCCNC(=O)c2cnccn2)CC1: 6.07
- COc1ccc(N2CCN(CCCN3CCN(c4ncccc4C#N)CC3)CC2)cc1: 5.82
- COc1ccccc1N1CCN(CCCN2CCN(C(=O)c3ccccc3)CC2)CC1: 6.59
- O=C(c1ccccc1)N1CCN(CCCN2CCN(c3cccc(Cl)c3Cl)CC2)CC1: 6.92
- O=C(c1ccccn1)N1CCN(CCCN2CCN(c3cccc(Cl)c3Cl)CC2)CC1: 7.09
- COc1ccccc1N1CCN(CCN2CCN(C(=O)c3nn(C)c4ccccc34)CC2)CC1: 6.20
- N#Cc1cccnc1N1CCN(CCCOc2ccc3c(c2)NC(=O)CC3)CC1: 7.09
- N#Cc1cccnc1N1CCN(CCCN2CCN(c3ccccc3)CC2)CC1: 6.11
- O=C1CCc2ccc(OCCCCN3CCN(C(=O)c4ccccn4)CC3)cc2N1: 8.05
- COc1ccc(N2CCN(CCCN3CCN(C(=O)c4ccccc4)CC3)CC2)cc1: 5.26

###

Below, each entry is listed alongside its reported IC50 at 24 h.
Assay: Cytotoxicity against CHO-K1 cells measured after 24 hrs by MTT assay
Format: toxicity, cell-based, Cricetulus griseus
Details: Chinese hamster
measured.property: IC50 at 24 h (µM)

- N#Cc1cccnc1N1CCN(CCCOc2ccc3c(c2)NC(=O)CC3)CC1: 350
- O=C1CCc2ccc(OCCCCN3CCN(C(=O)c4ccccn4)CC3)cc2N1: 89
- N#Cc1cccnc1N1CCN(CCN2CCN(c3cccc(Cl)c3Cl)CC2)CC1: 220
- COc1ccccc1N1CCN(CCCN2CCN(C(=O)c3ccccc3)CC2)CC1: 1300
- N#Cc1cccnc1N1CCN(CCCCOc2ccc3c(c2)NC(=O)CC3)CC1: 1000
- O=C(c1ccccc1)N1CCN(CCCN2CCN(c3ccccc3)CC2)CC1: 1300
- COc1ccccc1N1CCN(CCN2CCN(c3ncccc3C#N)CC2)CC1: 780
- O=C(c1ccccn1)N1CCN(CCCN2CCN(c3cccc(Cl)c3Cl)CC2)CC1: 290
- COc1ccccc1N1CCN(CCCN2CCN(C(=O)c3ccccn3)CC2)CC1: 1900

###

Assay: Toxicity in male Wistar rat assessed as maximum tolerated dose administered intraperitoneally
Conditions: in vivo, route ip
Attribute: MTD
measured.property: MTD (mg/kg)

* COc1ccccc1N1CCN(CCCN2CCN(c3ncccc3C#N)CC2)CC1 | 2.78
* N#Cc1cccnc1N1CCN(CCCN2CCN(c3cccc(Cl)c3Cl)CC2)CC1 | 0.2

###

Test: Tmax in male Wistar rat plasma at 2 mg/kg, ip
Format: ADME, organism-based
measured.property: Tmax (min)

• N#Cc1cccnc1N1CCN(CCCN2CCN(c3cccc(Cl)c3Cl)CC2)CC1 = 3

###

Test: Permeability of compound at pH 7.4 by PAMPA assay
measured.property: Papp (×10⁻⁶ cm/s)

• COc1ccccc1N1CCN(CCCNC(=O)c2cnccn2)CC1 = 25
• COc1ccccc1N1CCN(CCN2CCN(C(=O)c3nn(C)c4ccccc34)CC2)CC1 = 13
• COc1ccccc1N1CCN(CCCN2CCN(c3ncccc3C#N)CC2)CC1 = 20
• O=C(c1ccccc1)N1CCN(CCCN2CCN(c3cccc(Cl)c3Cl)CC2)CC1 = 23
• COc1ccc(N2CCN(CCCN3CCN(c4ncccc4C#N)CC3)CC2)cc1 = 24
• NS(=O)(=O)c1cc2c(cc1Cl)N=CNS2(=O)=O [CHLOROTHIAZIDE] = 0.3

###

Documented pIC50 across a set of compounds
Molecular target: 5-hydroxytryptamine receptor 3A (Cavia porcellus)
Sequence (O70212 whole entry): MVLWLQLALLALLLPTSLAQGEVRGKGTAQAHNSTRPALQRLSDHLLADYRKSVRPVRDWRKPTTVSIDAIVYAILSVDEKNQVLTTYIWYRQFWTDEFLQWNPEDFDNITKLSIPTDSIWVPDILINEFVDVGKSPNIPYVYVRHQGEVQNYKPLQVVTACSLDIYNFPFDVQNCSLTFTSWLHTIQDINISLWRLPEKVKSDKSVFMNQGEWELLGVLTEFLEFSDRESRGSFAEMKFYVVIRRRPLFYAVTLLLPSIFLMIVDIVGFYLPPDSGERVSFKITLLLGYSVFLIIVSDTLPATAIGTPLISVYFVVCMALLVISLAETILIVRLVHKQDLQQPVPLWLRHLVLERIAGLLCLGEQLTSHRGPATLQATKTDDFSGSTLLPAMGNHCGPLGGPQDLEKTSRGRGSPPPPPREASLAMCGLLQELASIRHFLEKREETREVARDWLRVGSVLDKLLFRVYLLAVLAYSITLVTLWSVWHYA
Assay: Antagonist activity at 5-HT3 receptor in guinea-pig ileum assessed as inhibition of 5HT-induced contraction
Type: tissue-based
pIC50: −log10 of the molar value.
measured.property: pIC50

* N#Cc1cccnc1N1CCN(CCN2CCN(c3cccc(Cl)c3Cl)CC2)CC1 | 6.00
* COc1ccccc1N1CCN(CCN2CCN(C(=O)c3nn(C)c4ccccc34)CC2)CC1 | 5.52
* N#Cc1cccnc1N1CCN(CCCN2CCN(c3cccc(Cl)c3Cl)CC2)CC1 | 6.52
* O=C1CCc2ccc(OCCCCN3CCN(c4cccc(Cl)c4Cl)CC3)cc2N1 | 3.20
* CN1CCN(C2=Nc3cc(Cl)ccc3Nc3ccccc32)CC1 | 3.96
